Target Under Test: T1, extracellular domain of the alpha subunit of the human FcεRI (aa 1-176), produced in baculovirus infected … (human, UniProt P12319 26-201, N-linked carbohydrate (NAG on Asn21 seen in the crystal); derivatised with PDEA for thiol coupling to the chip in the biosensor assay)
T1 construct: range 1-176; Residues 1-176 are probably counted without the signal peptide; also called FcεRIα; soluble FcεRI
T1 sequence (looked up): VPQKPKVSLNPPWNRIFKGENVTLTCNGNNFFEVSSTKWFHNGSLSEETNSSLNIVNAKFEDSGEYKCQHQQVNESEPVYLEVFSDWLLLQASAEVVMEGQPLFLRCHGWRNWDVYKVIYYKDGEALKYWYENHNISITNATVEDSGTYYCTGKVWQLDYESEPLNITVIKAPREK
Test Protocol: SPR biosensor (BIAcore), peptide over immobilized FcεRIα, steady-state saturation curve, 4-parameter fit
Protocol: *peptide is a dimer. SEQ ID NO: describes each monomer of the dimer. […] Serial dilutions of peptide in running buffer (phosphate-buffered saline containing 0.05% Tween-20, 0.01% sodium azide) were injected over the immobilized receptor, and the net amount of peptide bound at steady-state was measured as the net change in response (RU) at a point just prior to termination of peptide injection, compared to a running-buffer baseline. […]
Where no end group is shown, it is not given here.

Binder: KSCPLWCYVGGKALCPDVCYV-NH2 (disulfide (positions not given here); not fully specified (bridges); also: oxidized, disulfide-bonded Cys, pairing not given here) [IGE128]
Value Unit: nM
EC50: 240
--
Binder: VQCPHFCYVGGHALCPDVCYVGR-OH (cysteine pairing not given here, produced biosynthetically as a fusion to the Z-domain of protein A and cleaved off with trypsin; free C-terminus) [IGE132]
Value Unit: nM
EC50: 680
--
Binder: VVCPNMCYVGGKALCPDVCYV-NH2 (disulfide (positions not given here); also: oxidized, disulfide-bonded Cys, pairing not given here) [IGE121]
Value Unit: nM
EC50: 340
--
Binder: VQCPHFCYVGGKVQCPHFCYV-NH2 (disulfide (positions not given here); not fully specified (bridges); also: oxidized, disulfide-bonded Cys, pairing not given here) [IGE131]
Value Unit: nM
EC50: 2300
--
Binder: IVCARLCYVGGKALCPDVCYV-NH2 (disulfide (positions not given here); not fully specified (bridges); also: oxidized, disulfide-bonded Cys, pairing not given here, P4A variant of IGE120) [IGE127]
Value Unit: nM
EC50: 13000
--
Binder: ALCPAVCYV-NH2 (also: antiparallel disulfide-linked homodimer, interchain C3-C7' and C7-C3', also called IGE037 dimer) [IGE089]
Value Unit: nM
EC50: 64000
--
Binder: VPCPELCYVGGKALCPDVCYV-NH2 (disulfide (positions not given here); also: oxidized, disulfide-bonded Cys, pairing not given here) [IGE124]
Value Unit: nM
EC50: 890
--
Binder: VKCPSLCYVGGKALCPDVCYV-NH2 (disulfide (positions not given here); also: oxidized, disulfide-bonded Cys, pairing not given here) [IGE123]
Value Unit: nM
EC50: 180
--
Binder: VTCPRWCYVGGKALCPDVCYV-NH2 (disulfide (positions not given here); also: oxidized, disulfide-bonded Cys, pairing not given here) [IGE126]
Value Unit: nM
EC50: 380
